# experimentalSystem: TNFα / TNFα receptor (TNFα R1/Fc) (Homo sapiens)
# Construct: purchased R&D Systems
# protocolDetails: Inhibition of binding of TNFα to the TNFα receptor (plate ELISA competition)
# cond: Table 2; read-out: Activity (IC50, inhibition of TNFα binding to TNFα R1/Fc)
Numbered stars: 1 amine (or outer) side, 2 acyl side, 3 side chain; on linkers, the order of the positions; unused ones are H or OH. Bridge positions count the residues as written; N and C are the ends. Square brackets hold non-standard residues; d marks the D form. Peptide text beside a SMILES is read from it. Bip(4'-Cl) = N[C@@H](Cc1ccc(-c2ccc(Cl)cc2)cc1)C(=O)O; Phe(4-CF3) = N[C@@H](Cc1ccc(C(F)(F)F)cc1)C(=O)O; Bip = N[C@@H](Cc1ccc(-c2ccccc2)cc1)C(=O)O; dPhe(4-NH2) = Nc1ccc(C[C@@H](N)C(=O)O)cc1; Phe(4-NH2) = Nc1ccc(C[C@H](N)C(=O)O)cc1; d(hPhe) = N[C@H](CCc1ccccc1)C(=O)O; d2Thi = N[C@H](Cc1cccs1)C(=O)O; Suc = O=C(CCC(=O)[*:2])[*:1]
measurementType: IC50

Answered examples (3):
compound: O=C1N[C@H](Cc2ccccc2)C(=O)N[C@@H](C(=O)O)Cc2ccc(cc2)NC(=O)[C@H](O)[C@@H](O)C(=O)N[C@H](Cc2ccccc2)C(=O)N[C@H]1Cc1ccc(-c2ccccc2)cc1
measuredResult: 30 to 100 µM

compound: O=C1CCC(=O)N[C@H](Cc2cccs2)C(=O)N[C@@H](Cc2ccc(-c3ccccc3)cc2)C(=O)N[C@@H](Cc2ccc(O)cc2)C(=O)N[C@H](C(=O)O)Cc2ccc(cc2)N1 [Compound 58] ([d2Thi][Bip]Y[Phe(4-NH2)]-OH; linker N-4 via Suc)
measuredResult: > 100 µM

compound: O=C1COc2ccc(cc2)C[C@@H](C(=O)N[C@H](Cc2ccccc2)C(=O)O)NC(=O)[C@H](Cc2ccccc2)NC(=O)[C@@H](Cc2ccc(-c3ccccc3)cc2)NC(=O)[C@H](Cc2cccs2)N1
measuredResult: < 10 µM

Problem: Recorded IC50 for O=C1COc2ccc(cc2)C[C@@H](C(=O)O)NC(=O)[C@H](CCc2ccccc2)NC(=O)[C@@H](Cc2ccc(-c3ccccc3)cc2)NC(=O)[C@H](Cc2ccccc2)N1 with TNFα / TNFα receptor (TNFα R1/Fc) (Homo sapiens), please?
Solution: < 10 µM

Problem: Try this compound too: O=C1CCC(=O)N[C@H](Cc2ccccc2)C(=O)N[C@@H](Cc2ccc(-c3ccccc3)cc2)C(=O)N[C@H](Cc2ccccc2)C(=O)N[C@H](C(=O)O)Cc2ccc(cc2)N1 [Compound 128] ([dF][Bip][dF][Phe(4-NH2)]-OH; linker N-4 via Suc)
Solution: 30 to 100 µM

Problem: Try this compound too: O=C1CCC(=O)N[C@H](CCc2ccccc2)C(=O)N[C@@H](Cc2ccc(C(F)(F)F)cc2)C(=O)N[C@H](Cc2ccccc2)C(=O)N[C@@H](C(=O)O)Cc2ccc(cc2)N1 [Compound 3] ([d(hPhe)][Phe(4-CF3)][dF][dPhe(4-NH2)]-OH; linker N-4 via Suc)
Solution: 10 to 30 µM

Problem: Try this compound too: Nc1ccc(C[C@H](NC(=O)[C@@H]2Cc3ccc(cc3)NC(=O)CCC(=O)N[C@H](CCc3ccccc3)C(=O)N[C@@H](Cc3ccc(-c4ccccc4)cc3)C(=O)N[C@H](Cc3ccccc3)C(=O)N2)C(=O)O)cc1 [Compound 505] ([d(hPhe)][Bip][dF][Phe(4-NH2)][Phe(4-NH2)]-OH; linker N-4 via Suc)
Solution: 10 to 30 µM

Problem: Try this compound too: O=C1CCC(=O)N[C@H](CCc2ccccc2)C(=O)N[C@@H](Cc2ccc(-c3ccc(Cl)cc3)cc2)C(=O)N[C@H](Cc2ccccc2)C(=O)N[C@H](C(=O)O)Cc2ccc(cc2)N1 [Compound 116] ([d(hPhe)][Bip(4'-Cl)][dF][Phe(4-NH2)]-OH; linker N-4 via Suc)
Solution: < 10 µM

Problem: Try this compound too: CC(C)(C)Oc1ccc(C[C@@H]2NC(=O)COc3ccc(cc3)C[C@@H](C(=O)O)NC(=O)[C@H](Cc3ccccc3)NC(=O)[C@H](Cc3ccc(-c4ccccc4)cc3)NC2=O)cc1
Solution: > 100 µM

====

IC50 values for the compounds below.
# experimentalSystem: TNFα / TNFα receptor (TNFα R1/Fc) (Homo sapiens, UniProt P01375)
# Construct: purchased R&D Systems
# Sequence (P01375 77-233 limits assumed, species assumed): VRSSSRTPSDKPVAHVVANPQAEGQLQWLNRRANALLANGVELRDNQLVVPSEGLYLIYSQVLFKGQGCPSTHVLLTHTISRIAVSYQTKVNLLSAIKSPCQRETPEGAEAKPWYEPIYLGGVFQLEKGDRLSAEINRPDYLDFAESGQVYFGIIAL
# protocolDetails: Inhibition of binding of TNFα to the TNFα receptor (plate ELISA competition)
# cond: Table 2; read-out: Activity (IC50, inhibition of TNFα binding to TNFα R1/Fc)
# Protocol: The compounds listed in Table 2 below were assayed for ability to inhibit binding of TNFα to the TNFα receptor (TNFα R1/Fc). The assays were performed as described in the following procedure: TNFα (R&D Systems) was coated on high binding plate wells (Corning 96-well) at a single uniform concentration of 15 nM, 100 μL/well in PBS. […] The TMB reaction was stopped with the addition of 0.5N HCl and then the plate was read for absorbance at 450 nm.
Numbered stars: 1 amine (or outer) side, 2 acyl side, 3 side chain; on linkers, the order of the positions; unused ones are H or OH. Bridge positions count the residues as written; N and C are the ends. Square brackets hold non-standard residues; d marks the D form. Peptide text beside a SMILES is read from it. Tartaroyl(2R,3R-(OAc)2) = CC(=O)O[C@@H](C(=O)[*:1])[C@@H](OC(C)=O)C(=O)[*:2]; Bip = N[C@@H](Cc1ccc(-c2ccccc2)cc1)C(=O)O; dBip = N[C@H](Cc1ccc(-c2ccccc2)cc1)C(=O)O; Phe(4-NH2) = Nc1ccc(C[C@H](N)C(=O)O)cc1; d(hPhe) = N[C@H](CCc1ccccc1)C(=O)O; hPhe = N[C@@H](CCc1ccccc1)C(=O)O; 2Thi = N[C@@H](Cc1cccs1)C(=O)O; d2Thi = N[C@H](Cc1cccs1)C(=O)O; Suc = O=C(CCC(=O)[*:2])[*:1]; Nphe = O=C(O)CNCc1ccccc1

compound: O=C1COc2ccc(cc2)C[C@@H](C(=O)O)NC(=O)[C@H](CCc2ccccc2)NC(=O)[C@@H](Cc2ccc(-c3ccccc3)cc2)NC(=O)[C@H](Cc2cscn2)N1
IC50: < 10 µM
--
compound: N#Cc1cccc(C[C@H]2NC(=O)[C@H](O)[C@@H](O)C(=O)Nc3ccc(cc3)C[C@@H](C(=O)O)NC(=O)[C@@H](Cc3ccccc3)NC(=O)[C@H](Cc3ccc(-c4ccccc4)cc3)NC2=O)c1
IC50: 10 to 30 µM
--
compound: C[C@H]1NC(=O)CCC(=O)Nc2ccc(cc2)C[C@@H](C(=O)O)NC(=O)[C@@H](Cc2ccccc2)NC(=O)[C@H](Cc2ccc(-c3ccccc3)cc2)NC1=O [Compound 46] ([dA][Bip][dF][Phe(4-NH2)]-OH; linker N-4 via Suc)
IC50: > 100 µM

Problem: Recorded IC50 for CC(=O)O[C@H]1C(=O)Nc2ccc(cc2)C[C@@H](C(=O)N[C@@H](Cc2ccccc2)C(=O)O)NC(=O)[C@H](CCc2ccccc2)NC(=O)[C@@H](Cc2ccc(-c3ccccc3)cc2)NC(=O)[C@H](Cc2cccs2)NC(=O)[C@@H]1OC(C)=O [Compound 412] ([2Thi][dBip][hPhe][Phe(4-NH2)]F-OH; linker N-4 via Tartaroyl(2R,3R-(OAc)2)) , please?
Solution: < 10 µM

Problem: Try this compound too: O=C1CCC(=O)N[C@H](Cc2cccs2)C(=O)N(Cc2ccccc2)CC(=O)N[C@H](Cc2ccccc2)C(=O)N[C@H](C(=O)O)Cc2ccc(cc2)N1 [Compound 101] ([d2Thi][Nphe][dF][Phe(4-NH2)]-OH; linker N-4 via Suc)
Solution: > 100 µM

Problem: Try this compound too: O=C1COc2ccc(cc2)C[C@@H](C(=O)O)NC(=O)[C@H](CCc2ccccc2)NC(=O)[C@@H](CCc2ccccc2)NC(=O)[C@H](CCc2ccccc2)N1
Solution: < 10 µM

Problem: Try this compound too: O=C1COc2ccc(cc2)C[C@@H](C(=O)NCCS(=O)(=O)O)NC(=O)[C@H](CCc2ccccc2)NC(=O)[C@@H](Cc2ccc(-c3ccccc3)cc2)NC(=O)[C@H](Cc2ccc(-c3ccccc3)cc2)N1
Solution: 10 to 30 µM

Problem: Try this compound too: CC(=O)O[C@H]1C(=O)Nc2ccc(cc2)C[C@@H](C(=O)O)NC(=O)[C@@H](CCc2ccccc2)NC(=O)[C@H](Cc2ccc(-c3ccccc3)cc2)NC(=O)[C@@H](Cc2ccccc2)NC(=O)[C@@H]1OC(C)=O [Compound 235] ([dF][Bip][d(hPhe)][Phe(4-NH2)]-OH; linker N-4 via Tartaroyl(2R,3R-(OAc)2))
Solution: 10 to 30 µM

Problem: Try this compound too: O=C1COc2ccc(cc2)C[C@@H](C(=O)O)NC(=O)[C@H](Cc2ccccc2)NC(=O)[C@@H](Cc2ccc(C(F)(F)F)cc2)NC(=O)[C@H](Cc2cccs2)N1
Solution: > 100 µM
